System: ZR-75-1 cells
Assay: Proliferation colony formation assay (SRB stain)
Type: cell-based
Settings: Homo sapiens, 288 h, read-out: Concentration giving 50% inhibition of proliferation; ZR-75-1, single agent, 12 days
VALUE_KIND: pIC50
Answer as the number alone; pIC50 is minus log10 of concentration in mol/L.

Consider the compound Cc1cc(-c2ccccc2)cc(C(=O)NNS(=O)(=O)c2ccccc2)c1F [COMPOUND A] and give its measured pIC50.
6.52

Recorded values, source patent US20260240819A1.
